molecular target: FAAH (Rattus norvegicus); construct: Preparation of Rat Brain Membranes Preparations (FAAH Enzyme Solution); from tissue; host or cells: rat cerebrum (brain membrane preparation); test: Determination of FAAH inhibitory activity in rat (rat brain membrane preparations, [3H]-anandamide hydrolysis); format: biochemical; details: rat brain membrane preparations; test substance 0.1 nM to 1 μM; read-out: FAAH Inhibition IC50
Sequence (P97612 whole entry): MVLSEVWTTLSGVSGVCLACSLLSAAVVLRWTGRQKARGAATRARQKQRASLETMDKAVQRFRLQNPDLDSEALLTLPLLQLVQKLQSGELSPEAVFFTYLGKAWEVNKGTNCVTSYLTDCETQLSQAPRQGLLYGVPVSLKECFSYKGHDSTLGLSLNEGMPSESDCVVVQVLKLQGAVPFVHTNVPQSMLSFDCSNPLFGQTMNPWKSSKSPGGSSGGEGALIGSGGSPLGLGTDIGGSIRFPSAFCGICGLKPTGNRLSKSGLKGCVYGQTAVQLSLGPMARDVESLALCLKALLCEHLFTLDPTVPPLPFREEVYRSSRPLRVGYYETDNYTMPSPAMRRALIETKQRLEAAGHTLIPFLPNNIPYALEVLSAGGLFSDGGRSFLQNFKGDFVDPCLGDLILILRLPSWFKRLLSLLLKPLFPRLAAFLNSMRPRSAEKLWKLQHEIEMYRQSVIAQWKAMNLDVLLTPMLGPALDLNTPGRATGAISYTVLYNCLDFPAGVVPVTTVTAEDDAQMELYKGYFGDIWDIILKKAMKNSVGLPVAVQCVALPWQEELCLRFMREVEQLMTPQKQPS
Property: IC50; scope: individual molecules
The answer is to be given in µM; state only the numeric part.

Sample records with IC50:
{"columns": ["molecule", "unit abbreviation", "IC50"],
 "data": [
  ["Cn1c(=O)n(C(=O)N2CCC(CCc3ccc(Cl)cc3)CC2)c2cnc(-c3ccncc3)nc21 [Example 152]", "µM", 0.0006],
  ["CN(CCCc1ccccc1)C(=O)n1c(=O)n(C)c2nc(-c3ccccc3)ncc21 [Example 35]", "µM", 0.008],
  ["CN(C)C(=O)n1c(=O)n(C)c2cnc(-c3ccc(OC(F)(F)F)cc3)nc21 [compound 318]", "µM", 0.027],
  ["Cn1c(=O)n(C(=O)N2CCCC2)c2cnc(-c3cccc(O)c3)nc21 [Example 311]", "µM", 0.053],
  ["COc1cccc(-c2ncc3c(n2)n(C)c(=O)n3C(=O)N2CCN(c3ccc(F)cc3)CC2)c1 [Example 136]", "µM", 0.003]
]}

Request: For the molecule shown here, COc1cccc(-c2ncc3c(n2)n(C)c(=O)n3C(=O)N2CCN(Cc3ccc(F)cc3)CC2)c1 [Example 84] , give the reported IC50.
Result: 0.013

Request: How about this molecule: CCN(C)C(=O)n1c(=O)n(C)c2cnc(-c3cccc(OC(F)F)c3)nc21 [compound 343]
Result: 0.014

Request: How about this molecule: CCOc1ccc(-c2ncc3c(n2)n(C(=O)N2CCCC2)c(=O)n3C)cc1 [Example 233]
Result: 0.04

Request: How about this molecule: COCc1ncc2c(n1)n(C)c(=O)n2C(=O)N1CC[C@H](Oc2ccccc2Cl)C1 [Example 491]
Result: 0.002

Request: How about this molecule: Cn1c(=O)n(C(=O)N2CCC2)c2cnc(Cc3cccc(C(F)(F)F)c3)nc21 [Example 379]
Result: 0.013

Where do the numbers come from? From patent US8735406B2.
